molecular target: T1r2a/T1r3 full-length receptor (Oryzias latipes, UniProt A0A173M094+A0A173M0G2); assay: Ca2+-flux receptor response assay in Flip-In 293 cells stably expressing full-length T1r2a, T1r3 and Gα16-gust44; assay type: cell-based, O. latipes; details: from response at 10 mM; log 1/EC50-est; read-out: pEC50-est (converted)
Sequence (A0A173M0G2 entry or part of it): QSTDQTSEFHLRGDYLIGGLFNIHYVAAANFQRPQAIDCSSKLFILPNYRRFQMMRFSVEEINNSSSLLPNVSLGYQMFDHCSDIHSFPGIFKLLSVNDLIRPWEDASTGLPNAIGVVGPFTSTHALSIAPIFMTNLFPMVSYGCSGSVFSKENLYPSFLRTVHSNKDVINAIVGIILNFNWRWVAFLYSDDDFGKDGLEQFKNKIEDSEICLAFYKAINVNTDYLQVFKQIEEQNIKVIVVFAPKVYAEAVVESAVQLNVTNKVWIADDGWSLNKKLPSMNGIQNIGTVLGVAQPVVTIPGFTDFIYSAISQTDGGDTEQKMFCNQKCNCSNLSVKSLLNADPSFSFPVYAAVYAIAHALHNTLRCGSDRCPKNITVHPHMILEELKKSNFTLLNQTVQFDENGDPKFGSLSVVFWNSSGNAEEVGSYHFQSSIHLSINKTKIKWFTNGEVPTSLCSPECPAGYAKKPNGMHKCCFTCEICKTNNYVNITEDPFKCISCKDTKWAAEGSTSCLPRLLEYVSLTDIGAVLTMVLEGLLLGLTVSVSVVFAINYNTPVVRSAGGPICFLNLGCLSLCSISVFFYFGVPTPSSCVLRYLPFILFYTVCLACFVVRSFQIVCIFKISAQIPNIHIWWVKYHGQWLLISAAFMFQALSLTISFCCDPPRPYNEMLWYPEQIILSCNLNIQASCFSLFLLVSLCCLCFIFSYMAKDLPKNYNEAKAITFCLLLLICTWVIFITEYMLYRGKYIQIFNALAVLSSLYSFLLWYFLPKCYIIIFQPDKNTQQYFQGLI
Sequence (A0A173M094 entry or part of it): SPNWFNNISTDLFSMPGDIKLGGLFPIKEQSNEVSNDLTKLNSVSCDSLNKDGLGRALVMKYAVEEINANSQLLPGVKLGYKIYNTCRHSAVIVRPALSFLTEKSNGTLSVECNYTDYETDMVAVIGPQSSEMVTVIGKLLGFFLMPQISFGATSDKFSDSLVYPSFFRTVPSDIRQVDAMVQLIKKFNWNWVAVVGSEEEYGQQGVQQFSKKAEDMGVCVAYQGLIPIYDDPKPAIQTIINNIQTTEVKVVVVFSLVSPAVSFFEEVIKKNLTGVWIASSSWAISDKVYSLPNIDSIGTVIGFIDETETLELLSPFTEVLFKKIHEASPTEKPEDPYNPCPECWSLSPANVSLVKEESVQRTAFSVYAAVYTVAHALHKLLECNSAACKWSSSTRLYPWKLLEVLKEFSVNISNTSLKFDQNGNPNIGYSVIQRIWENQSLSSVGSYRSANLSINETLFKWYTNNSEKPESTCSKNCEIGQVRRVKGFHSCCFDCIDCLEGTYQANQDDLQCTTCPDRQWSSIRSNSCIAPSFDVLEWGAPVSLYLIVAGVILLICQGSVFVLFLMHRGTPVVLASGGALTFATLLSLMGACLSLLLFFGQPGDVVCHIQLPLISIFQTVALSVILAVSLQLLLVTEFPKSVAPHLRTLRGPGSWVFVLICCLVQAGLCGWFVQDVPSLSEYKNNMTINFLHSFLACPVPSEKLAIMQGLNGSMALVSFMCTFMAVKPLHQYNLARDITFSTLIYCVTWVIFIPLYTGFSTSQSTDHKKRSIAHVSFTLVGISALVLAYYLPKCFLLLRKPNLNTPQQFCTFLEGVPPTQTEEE
Each record here notes measured EC50.

{"molecule": "O=C(O)[C@@H]1CCCN1 [L-Pro, L-proline]", "unit-string": "mM", "EC50": 13.2}
{"molecule": "NC(=O)CC[C@H](N)C(=O)O [L-Gln, L-glutamine]", "unit-string": "mM", "EC50": 2.88}
{"molecule": "C[C@H](N)C(=O)O [L-Ala, L-alanine]", "unit-string": "mM", "EC50": 1.48}
{"molecule": "C[C@@H](N)C(=O)O [D-Ala, D-alanine]", "unit-string": "mM", "EC50": 33.9}

----------
molecular target: medaka T1r2a/T1r3LBD (Oryzias latipes, UniProt A0A173M094+A0A173M0G2); assay: Differential scanning fluorimetry (DSF) thermal shift ligand-binding assay; set-up: species or system O. latipes; settings: 10 mM amino acid; average ± s.e.m., n = 4

{"molecule": "NCC(=O)O [Gly, glycine]", "ΔTm / K": 5.08}
{"molecule": "CC(C)[C@H](N)C(=O)O [L-Val]", "ΔTm / K": 7.85}
{"molecule": "C[C@@H](N)C(=O)O [D-Ala, D-alanine]", "ΔTm / K": -1.03}
{"molecule": "N[C@@H](CC(=O)O)C(=O)O [L-Asp, L-aspartate]", "ΔTm / K": 0.74}
{"molecule": "NCCCC[C@H](N)C(=O)O [L-Lys, L-lysine]", "ΔTm / K": -3.83}
{"molecule": "O=C(O)[C@@H]1CCCN1 [L-Pro, L-proline]", "ΔTm / K": 7.24}
{"molecule": "N[C@@H](CO)C(=O)O [L-Ser]", "ΔTm / K": 7.32}
{"molecule": "N=C(N)NCCC[C@H](N)C(=O)O [L-Arg, arginine]", "ΔTm / K": 11.0}

----------
biological target: T1r2a/T1r3 full-length receptor (Oryzias latipes, UniProt A0A173M094+A0A173M0G2); experiment: Ca2+-flux receptor response assay in Flip-In 293 cells stably expressing full-length T1r2a, T1r3 and Gα16-gust44; type: cell-based, O. latipes; conditions: estimated from ΔRFU at 10 mM by Hill equation, ΔRFUmax 104.3; read-out: EC50-est
So basically, if EC50 comes in under 20 mM it's Met, and if it's 20 mM or more it's Not met.

{"molecule": "N[C@@H](CO)C(=O)O [L-Ser]", "assigned-class": "Not met"}
{"molecule": "CC(C)C[C@H](N)C(=O)O [L-Leu]", "assigned-class": "Not met"}
{"molecule": "CC[C@H](C)[C@H](N)C(=O)O [L-Ile]", "assigned-class": "Not met"}
{"molecule": "N[C@@H](CCC(=O)O)C(=O)O [L-Glu, glutamate]", "assigned-class": "Not met"}
{"molecule": "CC(C)[C@H](N)C(=O)O [L-Val]", "assigned-class": "Not met"}
{"molecule": "NCC(=O)O [Gly, glycine]", "assigned-class": "Met"}

----------
biological target: medaka T1r2a/T1r3LBD (Oryzias latipes, UniProt A0A173M094+A0A173M0G2); assay: Differential scanning fluorimetry (DSF) thermal shift ligand-binding assay; parameters: species or system O. latipes; details: 0.1 mM amino acid; average ± s.e.m., n = 4
Would you please tag the item label 1 when its ΔTm is 0.1 K or above, and label 0 when it is below?

{"compound": "NCC(=O)O [Gly, glycine]", "tested-system": "medaka T1r2a/T1r3LBD (Oryzias latipes, UniProt A0A173M094+A0A173M0G2)", "assigned-class": "label 0"}
{"compound": "N[C@@H](CC(=O)O)C(=O)O [L-Asp, L-aspartate]", "tested-system": "medaka T1r2a/T1r3LBD (Oryzias latipes, UniProt A0A173M094+A0A173M0G2)", "assigned-class": "label 0"}
{"compound": "C[C@H](N)C(=O)O [L-Ala, L-alanine]", "tested-system": "medaka T1r2a/T1r3LBD (Oryzias latipes, UniProt A0A173M094+A0A173M0G2)", "assigned-class": "label 1"}
{"compound": "C[C@@H](N)C(=O)O [D-Ala, D-alanine]", "tested-system": "medaka T1r2a/T1r3LBD (Oryzias latipes, UniProt A0A173M094+A0A173M0G2)", "assigned-class": "label 1"}
{"compound": "N[C@@H](Cc1ccccc1)C(=O)O [L-Phe]", "tested-system": "medaka T1r2a/T1r3LBD (Oryzias latipes, UniProt A0A173M094+A0A173M0G2)", "assigned-class": "label 1"}
{"compound": "N[C@@H](CO)C(=O)O [L-Ser]", "tested-system": "medaka T1r2a/T1r3LBD (Oryzias latipes, UniProt A0A173M094+A0A173M0G2)", "assigned-class": "label 0"}
{"compound": "NCCCC[C@H](N)C(=O)O [L-Lys, L-lysine]", "tested-system": "medaka T1r2a/T1r3LBD (Oryzias latipes, UniProt A0A173M094+A0A173M0G2)", "assigned-class": "label 0"}
{"compound": "O=C(O)[C@@H]1CCCN1 [L-Pro, L-proline]", "tested-system": "medaka T1r2a/T1r3LBD (Oryzias latipes, UniProt A0A173M094+A0A173M0G2)", "assigned-class": "label 0"}

----------
biological target: T1r2a/T1r3 full-length receptor (Oryzias latipes, UniProt A0A173M094+A0A173M0G2); test: Ca2+-flux receptor response assay in Flip-In 293 cells stably expressing full-length T1r2a, T1r3 and Gα16-gust44; format: cell-based, O. latipes; settings: from response at 10 mM; log 1/EC50-est
readout-kind: pEC50-est

{"compound": "CC[C@H](C)[C@H](N)C(=O)O", "tested-system": "T1r2a/T1r3 full-length receptor (Oryzias latipes, UniProt A0A173M094+A0A173M0G2)", "measured": 1.62}
{"compound": "N[C@@H](CCC(=O)O)C(=O)O [L-Glu, glutamate]", "tested-system": "T1r2a/T1r3 full-length receptor (Oryzias latipes, UniProt A0A173M094+A0A173M0G2)", "measured": 1.61}
{"compound": "N[C@@H](Cc1c[nH]cn1)C(=O)O", "tested-system": "T1r2a/T1r3 full-length receptor (Oryzias latipes, UniProt A0A173M094+A0A173M0G2)", "measured": 1.20}

----------
biological target: medaka T1r2a/T1r3LBD (Oryzias latipes, UniProt A0A173M094+A0A173M0G2); experiment: Differential scanning fluorimetry (DSF) thermal shift ligand-binding assay; set-up: species or system O. latipes; details: log 1/Kd-app, converted from S1 Table values (10 mM; L-Ala 1 mM, L-Gln 0.1 mM)
Listed next: entries and their corresponding pKd-app.

{"compound": "CC(C)C[C@H](N)C(=O)O [L-Leu]", "tested-system": "medaka T1r2a/T1r3LBD (Oryzias latipes, UniProt A0A173M094+A0A173M0G2)", "pKd-app": 2.96}
{"compound": "N[C@@H](CCC(=O)O)C(=O)O [L-Glu, glutamate]", "tested-system": "medaka T1r2a/T1r3LBD (Oryzias latipes, UniProt A0A173M094+A0A173M0G2)", "pKd-app": 2.98}
{"compound": "C[C@@H](O)[C@H](N)C(=O)O [L-Thr]", "tested-system": "medaka T1r2a/T1r3LBD (Oryzias latipes, UniProt A0A173M094+A0A173M0G2)", "pKd-app": 2.97}
{"compound": "N[C@@H](CO)C(=O)O [L-Ser]", "tested-system": "medaka T1r2a/T1r3LBD (Oryzias latipes, UniProt A0A173M094+A0A173M0G2)", "pKd-app": 3.02}

The reported measurements were obtained from paper PMC6777825.
